# credit: paper PMC6943663

Molecular target: T1, AlkB (Escherichia coli, UniProt P05050 1-216)
T1 sequence: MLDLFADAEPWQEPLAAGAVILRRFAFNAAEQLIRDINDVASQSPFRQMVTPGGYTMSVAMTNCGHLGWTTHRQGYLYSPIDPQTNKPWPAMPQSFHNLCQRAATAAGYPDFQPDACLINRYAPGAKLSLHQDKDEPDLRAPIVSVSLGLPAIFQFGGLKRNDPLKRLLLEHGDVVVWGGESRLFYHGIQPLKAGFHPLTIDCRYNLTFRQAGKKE
Assay: stopped-flow 2aPu fluorescence, global fit (enzyme-product complex); Fe(II), aKG; after turnover; 50 mM HEPES-KOH pH 7.5, 50 mM KCl, 10 mM MgCl2, 40 uM Fe(II), 1 mM aKG, 2 mM ascorbate (composition as given for the anaerobic runs); stopped-flow at 37 C; titration temperature not given in the material
Settings: protein: recombinant; tags: His6; label: 2-aminopurine; blunt
attribute-measured: Kd (nM)
Dear colleague, please return just the value in nM, with no unit written.

Data request: Supply Kd value. Item: ds15A_2aPu (demethylated product of ds15m1A_2aPu) (dsDNA, 2-aminopurine at position 7 of strand 1 (written A)) DNA 1: ACAGGAACCGGCATA DNA 2: TATGCCGGTTCCTGT
Data returned: 1800
